Test system: SF-539 CNS
Experiment: NCI tumour cell line growth inhibition, 48 h
assayReadout: log10(TGI) (log10 of the value in µM)

{"compound": "CC(C)(C)C1CCC2c3c([nH]c4ccccc34)C3C(=O)N(c4ccc(C(=O)O)cc4)C(=O)C3C2C1 (configuration not stated)", "log10(TGI)": 1.54}
{"compound": "Nc1c(C(=O)Nc2ccccc2)sc2nc3c(cc12)C(O)CCC3 (configuration not stated)", "log10(TGI)": -0.22}
{"compound": "O=C(CCl)Nc1ccc2c(Nc3cc(O)ccc3Cl)ncnc2c1", "log10(TGI)": 0.84}
{"compound": "O=c1cc(N2CCOCC2)oc2c(-c3ccc4c(c3)OCCO4)csc12", "log10(TGI)": 0.56}
{"compound": "O=C(Nc1ccc(Cl)cc1)Oc1ccc(C(=S)Nc2ccc(Br)cc2)cc1", "log10(TGI)": 1.60}

----------
Tested on: HOP-62 NSCLC
Assay: NCI tumour cell line growth inhibition, 48 h
assayReadout: GI50

{"smilesInput": "O=C(CCl)Nc1ccc2c(Nc3cc(O)ccc3Cl)ncnc2c1", "assayReadout": "GI50", "measuredResult": "3.27 µM"}
{"smilesInput": "CCN(CC)CCCNc1ccc2ncn3c4ccc(O)cc4c(=O)c1c23", "assayReadout": "GI50", "measuredResult": "1.25 µM"}
{"smilesInput": "CCCCCCCCCCCCCCNc1nc(C(=O)OCC)ncc1-c1ccc(C(F)(F)F)cc1", "assayReadout": "GI50", "measuredResult": "> 100 µM"}
{"smilesInput": "Cn1cc(-c2ccc(-c3cn(C)c4ncccc34)[nH]2)c2cccnc21", "assayReadout": "GI50", "measuredResult": "3.02 µM"}
{"smilesInput": "CCCCCCC/C(=N\\N=C(N)N)c1ccc(O)cc1", "assayReadout": "GI50", "measuredResult": "1.81 µM"}
{"smilesInput": "N#CCCN1C/C(=C/c2ccccc2)C(=O)/C(=C/c2ccccc2)C1", "assayReadout": "GI50", "measuredResult": "2.61 µM"}

----------
Tested on: CCRF-CEM leukemia
Test: NCI tumour cell line growth inhibition, 48 h
Please use the following TGI ranges when assigning a class: bin 0 (below 5 µM), bin 1 (5 µM to below 40 µM), bin 2 (40 µM or more)

{"compound": "COc1ccc2c(c1)-c1c(c3cc(OC)ccc3n1CCN1CCOCC1)CC2", "labelClass": "bin 1"}
{"compound": "COc1cc2c3c(n(CCCN(C)C)c(=O)c2cc1OC)-c1cc2c(cc1C3=O)OCO2", "labelClass": "bin 0"}
{"compound": "COc1ccccc1C1(c2c(OC(C)C)c(=O)c2=O)SCCCS1", "labelClass": "bin 2"}
{"compound": "c1ccc2c(c1)Sc1ccccc1N2CC1CN2CCC1CC2 (stereo unspecified)", "labelClass": "bin 1"}
{"compound": "NCc1ccc(O)c(O)c1", "labelClass": "bin 2"}
{"compound": "CCCCCCCCCCCCCCNc1nc(C(=O)OCC)ncc1-c1ccc(C(F)(F)F)cc1", "labelClass": "bin 2"}
{"compound": "CCOC(=O)C(=O)Nc1cccc(Cl)c1C", "labelClass": "bin 2"}
{"compound": "CN(C)CC/C(=N\\Nc1c(F)c(F)c(F)c(F)c1F)c1ccccc1", "labelClass": "bin 2"}
{"compound": "CCCCCCC(C)c1ccc2c(c1)C(=O)c1nc3ccncc3c(=O)n1-2 (stereo unspecified)", "labelClass": "bin 1"}
{"compound": "CC(O)C1(CNc2cc(Cl)nc(N)n2)CCCC1 (stereo unspecified)", "labelClass": "bin 2"}
{"compound": "O=C(Cc1nc2cccnc2nc1/C=C(\\O)c1ccccc1)c1ccccc1", "labelClass": "bin 1"}
{"compound": "C=C[C@H]1CN2CCc3c([nH]c4cc(O)ccc34)[C@@H]2C[C@@H]1C[C@H]1c2[nH]c3ccccc3c2CCN1C", "labelClass": "bin 0"}
{"compound": "CO[C@@H]1[C@H](O)CC[C@]2(CO2)[C@H]1[C@@]1(C)O[C@@H]1CC=C(C)C", "labelClass": "bin 2"}
{"compound": "N#Cc1c(C#N)c(SSc2c(C#N)c(C#N)c(N)n2-c2ccc(F)cc2)n(-c2ccc(F)cc2)c1N", "labelClass": "bin 0"}
{"compound": "C[n+]1cn(-c2ccc([N+](=O)[O-])cn2)c2ccccc21", "labelClass": "bin 2"}
{"compound": "O=C1/C(=C/c2ccc(Cl)cc2)CCC/C1=C\\c1ccc(O)c(CN2CCCCC2)c1", "labelClass": "bin 1"}
{"compound": "O=[N+]([O-])c1ccc(/C(=C\\c2ccccc2)Cn2ccnc2)cc1", "labelClass": "bin 2"}
{"compound": "CC(O)C(C(=O)O)N(CC1(O)OCC(O)C(O)C1O)N=O (stereo unspecified)", "labelClass": "bin 2"}
{"compound": "C=C1CC[C@@H]2C(C)(C)C(O)CCC2(C)C1COc1ccc2ccc(=O)oc2c1 (stereo partly specified)", "labelClass": "bin 2"}
{"compound": "COc1cccc(-c2cc(=O)c3cc(NC(C)=O)ccc3[nH]2)c1", "labelClass": "bin 1"}

All values here come from PubChem BioAssay (NCI).
